# Test system: VDR homodimer (NR concentration 270 nM)
# Method Summary: PBM binding z-score (relative to random genomic background probes); higher = stronger binding; sequences stand for … in GC…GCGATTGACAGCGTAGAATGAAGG
Parameter: PBM binding z-score

> print(dat)
                     sequence.content  quantitative.readout
1  TCTGCTAGGTCAGTTGATCAGCTAACGAGCTGCC                -0.722
2  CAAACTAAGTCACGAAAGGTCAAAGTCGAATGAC                  2.58
3  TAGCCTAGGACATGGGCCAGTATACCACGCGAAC                -0.526
4  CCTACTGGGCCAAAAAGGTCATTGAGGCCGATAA                  3.39
5  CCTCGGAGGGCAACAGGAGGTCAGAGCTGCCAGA                  1.22
6  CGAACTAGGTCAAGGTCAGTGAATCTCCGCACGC                  2.14
7  ACTTACGGGTCAACGAGGTTACAGCACGCGTATA                  3.71
8  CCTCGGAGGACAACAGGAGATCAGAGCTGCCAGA                -0.168
